Each recorded value in this set is attributed to the supplement of paper PMC9732359.

- Test protocol: protein stability index of a GFP-peptide fusion (yeast GPS) (PSI 1-4); higher = more stable; sorted into four equal gates, so the index is relative within each strain
- Test settings: pdr5∆
Please enter Satisfied where protein stability index is greater than or equal to 3, and Not satisfied where it is lower.

In: Could you verify whether the entry FPKIDSLAQNDCNSALD [RPN5] shows protein stability index of no less than 3?
Out: Not satisfied

In: Textbook exercise: given the entry AKLESLLENSVDKNFDK [MTW1] , state whether its protein stability index is greater than or equal to 3.
Out: Satisfied

In: Answer whether protein stability index of RVLITQRHIAVGKQIVN [RPS9A] is greater than or equal to 3.
Out: Not satisfied

In: Decide: protein stability index of ESWFKALAGSEINWRHA [FAS1] >= 3?
Out: Not satisfied

In: Quick check, protein stability index >= 3? DMLEHINLAMNESSLAL [SRB4]
Out: Not satisfied

In: Record NNANVLGGEINDNEDDD [BRR2] ; criterion: protein stability index no lower than 3. Met?
Out: Satisfied

In: Evaluate SEGSGSSLVQKGLETID [RPC53] : protein stability index at minimum 3?
Out: Satisfied

----------
Consider the following sequences; for each one, report its protein stability index.
- Test protocol: protein stability index of a GFP-peptide fusion (yeast GPS) (PSI 1-4); higher = more stable; sorted into four equal gates, so the index is relative within each strain
- Test settings: ubr1∆

In: Fill blank: measured protein stability index of the sequence DSIDLAPNTLTNILISP [YML103C/NUP188] is ____.
Out: 1.56

In: I have this sequence here, TVLESLGRLNKLRKIAI [LIN1] , and I need its recorded protein stability index.
Out: 2.95

In: Endpoint output: protein stability index of DLGIKYDPSIGIFGMDF [RPL11A] . Value?
Out: 3

In: Recorded protein stability index of YFLKVTFLKYFGWLLSD [IRR1] , please.
Out: 1.8

In: Please give the measured protein stability index for this sequence: AGQIPTGWNAKTYGISD [FAS2]
Out: 1.23

In: Item under review: QMTWRQWLNNALKRSYG [POP8] . Reported protein stability index?
Out: 3.2

In: Which protein stability index value belongs to SGKRKPTKAAQRARDQD [GAL11] ?
Out: 3.58

----------
- Test protocol: protein stability index of a GFP-peptide fusion (yeast GPS) (PSI 1-4); higher = more stable; sorted into four equal gates, so the index is relative within each strain
- Test settings: san1∆
Readout type: protein stability index
Give your answer as a number; write no unit.

In: Fill in: protein stability index of HVLYKESKGNAFKHKRA [RPL19A] is ___
Out: 2.59

In: # get_value(readout='protein stability index', item= GTSKYLINGHRAPQQSV [SMC2] )
Out: 2.27

In: Item under review: DSHKRIPDMSKNVELGW [SNU114] . Reported protein stability index?
Out: 2.79

In: Query: protein stability index; subject: TQHKVTQYKAGKASLFA [RPL42A]
Out: 2.99

In: What does the data say about its protein stability index? Entry: TKDKAKKIREIYRYDEM [BRR2]
Out: 2.46

In: Which protein stability index reading was recorded for the sequence GTISIQLKNGLLEKYNT [MTR3] ?
Out: 2.42

In: Recorded protein stability index of ELGISLEHPYGKEVEVL [SNU114] , please.
Out: 2.17

In: Can you share its protein stability index? I mean this sequence: ATLGIDPPKGILLYGPP [RPT1]
Out: 2.95

In: Fill in: protein stability index of QETASPLSQDELISLRK [YIL149C/MLP2] is ___
Out: 1.89

In: Look up protein stability index for this sequence: YVGEVIKIVSDKKVLVK [RPT6]
Out: 3.08

In: Look up protein stability index: DVKKPFSFGTSQPNNTP [YLR335W/NUP2]
Out: 2.5

In: Form field: reported protein stability index of PTQITQYTQRLSKLEKA [SRP68]
Out: 2.06

In: Given the sequence GKGDNDNGLGPLKYAPH [SWI3] , what is its reported protein stability index?
Out: 2.85

In: Find the recorded protein stability index belonging to ITVVLGVNGYIWLRKTS [RRP4] and report it.
Out: 1.34
